Data provenance: ChEMBL document CHEMBL6096733

- System: BCRP
- method: Efflux ratio of apparent permeability across basolateral to apical side over apical to basolateral side in human Caco-2 cells transfected with human BCRP at 3 uM measured after 60 to 90 mins by LC-MS/MS analysis
- Format: ADME, cell-based
- experimental-conditions: time 60-90 min
metric-name: efflux ratio at 3 µM
Output: the number by itself.

Task item: Reported efflux ratio at 3 µM, compound O=C(O)c1csc(-c2c(Cl)cccc2Cl)n1 : ____
Reply: 1.06

----------
- method: physchem
- experimental-conditions: potassium phosphate buffer, pH 7.4
- Description: Stability of compound in potassium phosphate buffer at pH 7.4 assessed as half-life
metric-name: half-life (min)
The figure you give is taken to be in min; do not add the unit.

Task item: Which value of half-life has been reported for CCN(CC)CCOC(=O)c1ccc(N)cc1 in the records?
Reply: 2

----------
- System: BCRP
- method: Efflux ratio of apparent permeability across basolateral to apical side over apical to basolateral side in human Caco-2 cells transfected with human BCRP at 3 uM preincubated with novobiocin for 15 to 30 mins followed by compound addition and measured after 60 to 90 mins by LC-MS/MS analysis
- Format: ADME, cell-based
- experimental-conditions: time 60-90 min
metric-name: efflux ratio at 3 µM
Write the value as a bare number.

Task item: Requested read-out: efflux ratio at 3 µM. Entry: O=C(O)c1csc(-c2c(Cl)cccc2Cl)n1
Reply: 1.05

----------
- method: Metabolic stability in pooled human plasma assessed as parent compound remaining at 20 uM measured after 120 mins by LC-MS analysis
- Assay type: ADME, cell-free
- experimental-conditions: read-out: Stability
Kindly supply the reported remaining at 2 h, 20 µM values for the records listed here.
Form field: result (number plus unit)

Task item: Data request, read-out remaining at 2 h, 20 µM, for O=C(O)c1csc(-c2c(Cl)cccc2Cl)n1
Reply: 94%

Task item: # repeat for CC(C)(C)OC(=O)c1csc(-c2c(Cl)cccc2Cl)n1
Reply: 70%

Task item: Can you handle CC(C)(C)COC(=O)c1csc(-c2c(Cl)cccc2Cl)n1 next?
Reply: 63%

----------
Record form. Attribute: Ki. Fill in for each entry.
- subject-of-test: Calcium/calmodulin-dependent protein kinase type II subunit alpha (Rattus norvegicus, UniProt P11275)
- Sequence (P11275 whole entry): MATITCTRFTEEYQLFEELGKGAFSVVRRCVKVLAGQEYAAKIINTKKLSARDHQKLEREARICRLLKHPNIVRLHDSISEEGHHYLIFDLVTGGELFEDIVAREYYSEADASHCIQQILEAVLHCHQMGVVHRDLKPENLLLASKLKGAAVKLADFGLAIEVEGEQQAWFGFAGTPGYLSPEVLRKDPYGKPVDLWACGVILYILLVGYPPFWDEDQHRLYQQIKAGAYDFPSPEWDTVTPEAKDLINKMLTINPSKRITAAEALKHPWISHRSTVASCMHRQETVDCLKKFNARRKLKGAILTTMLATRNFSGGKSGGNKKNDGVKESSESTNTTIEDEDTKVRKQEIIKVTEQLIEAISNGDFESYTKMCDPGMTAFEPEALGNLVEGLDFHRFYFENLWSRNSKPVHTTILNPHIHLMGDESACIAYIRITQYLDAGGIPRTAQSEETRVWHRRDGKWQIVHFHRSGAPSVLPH
- method: Inhibition of […] binding to CaMKIIalpha in rat brain cortical membrane assessed as inhibition constant incubated for 1 hrs by TopCount NXT microplate scintillation counter analysis
- Type: cell membranes, Cortex
- experimental-conditions: read-out: Ki
Express the result in µM but write the number alone.

Task item: What value of measured Ki is listed for O=C(O)c1csc(-c2c(F)cccc2F)n1 ?
Reply: 0.71

Task item: Can you check O=C(O)c1csc(-c2ccc(O)cc2)n1 next?
Reply: 12.6

Task item: Another molecule to check: COc1ccc(-c2nc(C(=O)O)cs2)cc1
Reply: 7.2

Task item: Consider next the molecule O=C(O)c1csc(-c2cccc3ccccc23)n1 in the same way.
Reply: 0.22

Task item: Moving on to O=C(O)c1csc(-c2c(Cl)cccc2Cl)n1
Reply: 0.062

Task item: Let us now turn to COc1cccc(-c2nc(C(=O)O)cs2)c1
Reply: 9.9

Task item: And O=C(O)Cc1csc(-c2ccccc2Cl)n1 ?
Reply: 2

Task item: Do the same for O=C(O)Cc1csc(-c2ccccc2)n1 please
Reply: 3.1

Task item: Try O=C(O)c1csc(CCc2ccccc2)n1 next.
Reply: 2.6

Task item: Continue with O=C(O)Cc1csc(-c2cccc3ccccc23)n1
Reply: 9.9

Task item: Try this molecule too: O=C(O)c1csc(-c2ccc(-c3ccccc3)cc2)n1
Reply: 5

Task item: Next molecule up: O=C(O)c1csc(-c2ccncc2)n1
Reply: 60.2
